Parameter: MIC. Scope: all listed entries.
# System: Staphylococcus aureus
# Measurement protocol: microbe, parasite or virus in culture
# Assay type: functional
# Condition: ATCC 25923, 5 h
# Description: Inhibition of cell division in penicillin-susceptible Staphylococcus aureus ATCC 25923 assessed as ballooning after 5 hrs by phase contrast microscopy
Provide only the numeric value, understood in µg/mL.

- Smiles record: "Cc1nc2ccccc2n1C(=O)/C=C/c1ccc(Cl)cc1Cl"
  MIC / µg/mL: 1

Log: Staphylococcus aureus, molecule CC(C)NC(=O)/C=C/c1ccc(Cl)cc1Cl , MIC = 32

Log: Staphylococcus aureus, molecule Cc1nc2ccccc2n1C(=O)/C=C/c1ccc([N+](=O)[O-])cc1 , MIC = 0.5

Form field, MIC with Staphylococcus aureus, item Cc1nc2ccccc2n1C(=O)/C=C/c1ccccc1Cl : 16

Staphylococcus aureus data for COc1ccc(/C=C/C(=O)N(C)C)cc1OC ; its MIC: 8

Lab note: molecule COc1cc(/C=C/C(=O)N2CCOCC2)cc(OC)c1OC tested on Staphylococcus aureus; recorded MIC was 16

Hey, just so you know, these numbers are from ChEMBL document CHEMBL3421607.
